- target.or.system: CH505.M10D8gp120
- assay.info: ELISA
assay.metric: LogAUC
Write the value as a bare number.

Just so you know, measured LogAUC for CH491 (antibody, V domains shown, also called CH235.7; DH491) VH: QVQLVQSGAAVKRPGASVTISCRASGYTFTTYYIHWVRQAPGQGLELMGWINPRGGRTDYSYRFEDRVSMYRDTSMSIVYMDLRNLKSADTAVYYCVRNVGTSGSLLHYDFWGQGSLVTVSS VL: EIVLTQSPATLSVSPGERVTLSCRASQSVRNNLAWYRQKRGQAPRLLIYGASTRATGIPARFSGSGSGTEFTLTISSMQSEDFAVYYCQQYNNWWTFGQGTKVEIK came out at 10.6

The reported LogAUC of the binder CH235 (antibody, V domains shown, also called CH235_4A) VH: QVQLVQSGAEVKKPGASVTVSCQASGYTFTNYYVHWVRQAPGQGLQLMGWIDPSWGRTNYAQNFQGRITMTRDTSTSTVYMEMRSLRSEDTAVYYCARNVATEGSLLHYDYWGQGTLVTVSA VL: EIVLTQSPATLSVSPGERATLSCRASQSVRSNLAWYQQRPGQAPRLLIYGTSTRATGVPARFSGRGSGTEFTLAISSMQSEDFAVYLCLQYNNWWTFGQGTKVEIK was 10.6

Query CH556 (antibody, V domains shown, also called CH235.11) VH: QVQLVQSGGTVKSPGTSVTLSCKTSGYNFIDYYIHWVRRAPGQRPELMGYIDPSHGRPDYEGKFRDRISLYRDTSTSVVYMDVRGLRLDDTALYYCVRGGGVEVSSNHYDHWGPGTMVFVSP VL: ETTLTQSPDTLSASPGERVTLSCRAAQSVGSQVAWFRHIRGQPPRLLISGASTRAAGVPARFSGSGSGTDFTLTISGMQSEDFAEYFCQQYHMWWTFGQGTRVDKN yields LogAUC of 1.06

get_value(item= CH557 (antibody, V domains shown, also called CH235.12; CH557_4A/293i) VH: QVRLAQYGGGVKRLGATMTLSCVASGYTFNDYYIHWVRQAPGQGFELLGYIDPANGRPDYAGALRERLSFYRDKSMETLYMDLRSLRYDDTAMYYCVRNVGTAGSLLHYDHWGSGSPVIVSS VL: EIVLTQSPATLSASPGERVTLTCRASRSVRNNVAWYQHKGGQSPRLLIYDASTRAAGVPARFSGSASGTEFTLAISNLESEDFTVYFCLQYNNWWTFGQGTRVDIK , readout=LogAUC) returns 7.63

For CH493 (antibody, V domains shown, also called CH235.9; DH493) VH: QVRLLQYGGGVKRPGASMTISCVASGYNFNDYYIHWVRQAPGQGLELMGWIDPSGGRTDYAGAFGDRVSMYRDKSMNTLYMDLRSLRSGDTAMYYCVRNVGTAGSLLHYDHWGLGVMVTVSS VL: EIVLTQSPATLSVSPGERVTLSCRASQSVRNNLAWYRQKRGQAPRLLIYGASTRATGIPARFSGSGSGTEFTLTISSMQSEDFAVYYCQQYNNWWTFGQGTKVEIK the binder record lists LogAUC as 10.2

According to the records, this binder CH235.13 (antibody, V domains shown) VH: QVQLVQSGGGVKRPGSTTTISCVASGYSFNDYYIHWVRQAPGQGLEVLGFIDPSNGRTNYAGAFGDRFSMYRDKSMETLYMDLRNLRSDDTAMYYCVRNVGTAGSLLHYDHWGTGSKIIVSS VL: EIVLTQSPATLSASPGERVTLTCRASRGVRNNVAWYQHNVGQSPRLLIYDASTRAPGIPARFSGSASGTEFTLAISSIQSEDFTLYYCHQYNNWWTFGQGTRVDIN displays LogAUC of 6.38
